tested on: rat erythrocytes; test: Hemolysis assay; type: cell-based
Square brackets hold non-standard residues; d marks the D form. Peptide text beside a SMILES is read from it. Gly(N(CH2)2(3-indolyl)) = O=C(O)CNCCc1c[nH]c2ccccc12; Nspe = C[C@H](NCC(=O)O)c1ccccc1; Nlys = NCCCCNCC(=O)O
Hmax (100 µM) reference
Answer in %, number only, no unit symbol.

// below: answered compounds
C[C@@H](c1ccccc1)N(CC(=O)N(CCc1c[nH]c2ccccc12)CC(N)=O)C(=O)CN(CCCCN)C(=O)CN(C(=O)CN(C(=O)CN(CCCCN)C(=O)CN(C(=O)CN(C(=O)CN(CCCCN)C(=O)CN(C(=O)CN(C(=O)CNCCCCN)[C@@H](C)c1ccccc1)[C@@H](C)c1ccccc1)[C@@H](C)c1ccccc1)[C@@H](C)c1ccccc1)[C@@H](C)c1ccccc1)[C@@H](C)c1ccccc1 [peptoid 7] (H-[Nlys][Nspe][Nspe][Nlys][Nspe][Nspe][Nlys][Nspe][Nspe][Nlys][Nspe][Gly(N(CH2)2(3-indolyl))]-NH2)    94.1
C[C@@H](c1ccccc1)N(CC(N)=O)C(=O)CN(C(=O)CN(CCCCN)C(=O)CN(C(=O)CN(CCCCN)C(=O)CN(CCCCN)C(=O)CN(CCc1c[nH]c2ccccc12)C(=O)CN(C(=O)CN(CCCCN)C(=O)CN(C(=O)CN(C(=O)CNCCCCN)[C@@H](C)c1ccccc1)[C@@H](C)c1ccccc1)[C@@H](C)c1ccccc1)[C@@H](C)c1ccccc1)[C@@H](C)c1ccccc1    2.7

# next compound below
Consider the compound "C[C@@H](c1ccccc1)N(CC(N)=O)C(=O)CN(C(=O)CN(CCCCN)C(=O)CN(C(=O)CN(C(=O)CN(CCCCN)C(=O)CN(C(=O)CN(CCCCN)C(=O)CN(CCCCN)C(=O)CN(CCc1c[nH]c2ccccc12)C(=O)CN(CCc1c[nH]c2ccccc12)C(=O)CNCCCCN)[C@@H](C)c1ccccc1)[C@@H](C)c1ccccc1)[C@@H](C)c1ccccc1)[C@@H](C)c1ccccc1" and give its recorded Hmax (100 µM).
8.5
